From: the Human Domainome abundance scans (Beltran et al. 2025)

B1: Spectrin alpha chain, erythrocytic 1, residues 979 to 1036; numbered along this chain, P02549 (parent)
chain: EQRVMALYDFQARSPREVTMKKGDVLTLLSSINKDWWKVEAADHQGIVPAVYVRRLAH

- Variants of: B1
- test method notes: abundance fitness (aPCA) (normalised: wild type 0, dead -1); higher = more abundant; growth selection in yeast, the domain comes from the species named
- particulars: Homo sapiens
Bucketed by reported abundance fitness, buckets being low range = under -0.7, mid range = from -0.7 up to -0.4, high range = -0.4 and over

# input Would you mind sorting A57S into the appropriate category?
# output high range

# input Next: V18A
# output high range

# input Next: T19A
# output high range

# input Next: Y52A
# output high range

# input Next: A42F
# output high range

# input Next: Y8F
# output high range

# input Next: L7P
# output low range

# input Next: S31L
# output high range

# input Next: A6Y
# output low range

# input Next: L26E
# output mid range

# input Next: E17S
# output low range

# input Next: A6P
# output low range

# input Next: R54A
# output high range

# input Next: S31V
# output high range

# input Next: F10Q
# output mid range

# input Next: Y52W
# output low range

# input Next: L56I
# output high range

# input Next: V39R
# output low range

# input Next: R54N
# output mid range

# input Next: Y52F
# output high range
